Provide the reported Ref Fab competition (%) of each item.
Molecular target: T1, Human soluble IL-6R (human, UniProt P08887 20-358)
T1 construct: Soluble recombinant form; biotinylated in some assays; also called hIL-6R; human IL-6R
T1 sequence (looked up): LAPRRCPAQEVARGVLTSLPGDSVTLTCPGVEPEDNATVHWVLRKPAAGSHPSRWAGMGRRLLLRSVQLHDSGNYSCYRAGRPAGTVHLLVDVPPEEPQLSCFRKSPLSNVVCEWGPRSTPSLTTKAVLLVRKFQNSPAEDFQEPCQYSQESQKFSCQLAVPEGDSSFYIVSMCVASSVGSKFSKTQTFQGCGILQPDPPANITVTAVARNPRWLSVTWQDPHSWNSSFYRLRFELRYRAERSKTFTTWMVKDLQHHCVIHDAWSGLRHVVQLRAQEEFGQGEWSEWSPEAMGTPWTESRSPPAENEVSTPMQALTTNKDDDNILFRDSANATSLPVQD
Assay: competition for IL-6R, competitor reference Fab, summary table C-13
Be sure to follow the number with its unit.

For orientation, consider the following solved cases.
binder | result
IL6R01 (VHH, also called PMP28E11; not shown: C-terminal c-myc and (His)6 tags) VHH: EVQLVESGGGLVQPGGSLRLSCAASGFPLDYYAIGWFRQAPGKEREGVSCISSSDGSTYYADSVKGRFTISRDNAKNTVYLQMNSLKPEDTAVYYCALVHTTAQATGVPQREYEYEWWGQGTQVTVSS | 49%
IL6R12 (VHH, also called PMP35F4; not shown: C-terminal c-myc and (His)6 tags) VHH: EVQLVESGGGLVQAGGSLRLSCAASGRTFSSYDMGWYRQAPGKEREFVAIITWNSSTYYADSVKGRFTISRDNAKNTVYLQMNSLKPEDTAIYYCNAQYGLGYAEDYWGQGTQVTVSS | 103%
IL6R03 (VHH, also called PMP31A4; not shown: C-terminal c-myc and (His)6 tags) VHH: EVQLVESGGGLVQAGGSLRLSCAASGSIFKVNAMGWYRQAPGKQRELVAGIISGGSTNYADSVKGRLTISRDNAKNTVYLQMNSLKPEDTAVYYCSFVTTNSDYDLGRDYWGQGTQVTVSS | 5%

Alright, here's another binder for you.
Ask: Output measured Ref Fab competition (%) for this item: IL6R09 (VHH, also called PMP34G9; not shown: C-terminal c-myc and (His)6 tags) VHH: EVQLVESGGGLVQAGGSLRLSCAASGRTSSSYDMTWYRQVPGKEREFVAVISWSGGSTYYADSVKGRFTISRDNAKNTVYLQMNSLKPEDTAIYYCNAYTGGGDDYWGQGTQVTVSS
Result: 62%
